Where these numbers come from: patent US8124637B2

Listed here: items and their measured Relative MTT viability (%).
# Test system: H1299 cells
# assay.remarks: MTT assay (relative cell survival), H1299
# condition.set: PhTERT-SEAP (H1299), 100 μM
Answer in %, number only, no unit symbol.

Known Relative MTT viability (%) results, listed for orientation:
                                        smi             reported_metric  data_value
0  O=C1c2ccccc2C(=O)c2c1ccc1nc(CCCl)[nH]c21  Relative MTT viability (%)       40.27
1  O=C1c2ccccc2C(=O)c2c1ccc1nc(CCN3CCN(c4ccccn4)CC3)[nH]c21  Relative MTT viability (%)       57.03
2  O=C1c2ccccc2C(=O)c2c1ccc1nc(CNCc3cccc(C(F)(F)F)c3)[nH]c21  Relative MTT viability (%)       32.26

Below: the item to evaluate.
# Relative MTT viability (%) lookup, item CC1CCN(Cc2nc3ccc4c(c3[nH]2)C(=O)c2ccccc2C4=O)CC1
32.26

---

Listed here: items and their measured Growth Percent.
# Tested on: HL-60(TB)
# assay.remarks: NCI 60-cell drug screen, one dose
# Assay type: cell-based, human
# condition.set: Leukemia HL-60(TB), 1.00E−5 Molar
Answer in %, number only, no unit symbol.

Known Growth Percent results, listed for orientation:
>>> df
                                        smi  reported_metric  data_value
0  O=C1c2ccccc2C(=O)c2c1ccc1nc(CN3CCCCC3)[nH]c21   Growth Percent       56.89
1  CN(CCc1ccccn1)Cc1nc2ccc3c(c2[nH]1)C(=O)c1ccccc1C3=O   Growth Percent      120.08
2  CCN(CC)Cc1nc2ccc3c(c2[nH]1)C(=O)c1ccccc1C3=O   Growth Percent       68.18
3  O=C1c2ccccc2C(=O)c2c1ccc1nc(CN3CCN(c4ccccn4)CC3)[nH]c21   Growth Percent       97.31
4  CN1CCN(Cc2nc3ccc4c(c3[nH]2)C(=O)c2ccccc2C4=O)CC1   Growth Percent       65.29

# Growth Percent lookup, item O=C1c2ccccc2C(=O)c2c1ccc1nc(CN3CCN(c4ccccc4)CC3)[nH]c21
107.54

---

# assay.remarks: MTT assay (relative cell survival), H1299
# condition.set: human, H1299 non-small cell lung cancer cells (PhTERT-SEAP), Relative MTT viability (%), 100 μM
Mark each entry 1.0 if its viability at 72 h, 100 µM sits below 9%, and 0.0 for all others.

Field: example entries. Status: answers known.
>>> print(df.to_string())
                                        smi  label_class
0  O=C1c2ccccc2C(=O)c2c1ccc1nc(CNCc3cccc(C(F)(F)F)c3)[nH]c21          0.0
1  O=C1c2ccccc2C(=O)c2c1ccc1nc(CN3CCCCC3)[nH]c21          0.0
2  O=C1c2ccccc2C(=O)c2c1ccc1nc(CCN3CCN(Cc4ccccc4)CC3)[nH]c21          1.0
3  O=C1c2ccccc2C(=O)c2c1ccc1nc(CN3CCSCC3)[nH]c21          1.0
4  O=C1c2ccccc2C(=O)c2c1ccc1nc(CN3CCN(c4ccccc4F)CC3)[nH]c21          0.0

Below 9% on viability at 72 h, 100 µM? Entry CN(Cc1nc2ccc3c(c2[nH]1)C(=O)c1ccccc1C3=O)CC1OCCO1
0.0

Below 9% on viability at 72 h, 100 µM? Entry N#Cc1ccccc1N1CCN(Cc2nc3ccc4c(c3[nH]2)C(=O)c2ccccc2C4=O)CC1
0.0

---

Listed here: items and their measured Growth Percent.
# Tested on: NCI/ADR-RES
# assay.remarks: NCI 60-cell drug screen, one dose
# Assay type: cell-based, human
# condition.set: Ovarian Cancer NCI/ADR-RES, 1.00E−5 Molar
Answer in %, number only, no unit symbol.

>>> df
                                        smi  reported_metric  data_value
0  CN(CCc1ccccn1)Cc1nc2ccc3c(c2[nH]1)C(=O)c1ccccc1C3=O   Growth Percent       86.11
1  O=C1c2ccccc2C(=O)c2c1ccc1nc(CN3CCN(c4ccccn4)CC3)[nH]c21   Growth Percent       81.16
2  CCN(CC)Cc1nc2ccc3c(c2[nH]1)C(=O)c1ccccc1C3=O   Growth Percent       65.32
3  O=C1c2ccccc2C(=O)c2c1ccc1nc(CN3CCCCC3)[nH]c21   Growth Percent       73.52

Below: the item to evaluate.
Hi! What's the reported Growth Percent for O=C1c2ccccc2C(=O)c2c1ccc1nc(CN3CCN(c4ccccc4)CC3)[nH]c21 on NCI/ADR-RES?
80.36

---

# assay.remarks: in vitro
# condition.set: human, Relative MTT viability (%)
Listed here: items and their measured viability at 72 h, 1 µM.
Answer in %, number only, no unit symbol.

Known viability at 72 h, 1 µM results, listed for orientation:
compound	viability at 72 h, 1 µM / %
COc1cccc(N2CCN(Cc3nc4ccc5c(c4[nH]3)C(=O)c3ccccc3C5=O)CC2)c1	81.3
O=C1c2ccccc2C(=O)c2c1ccc1nc(CCN3CCN(c4ccccc4)CC3)[nH]c21	94
Nc1ccc2c(c1N)C(=O)c1ccccc1C2=O [1,2-diaminoanthraquinone, reference compound]	105
O=C1c2ccccc2C(=O)c2c1ccc1nc(CN3CCN(c4ccccc4)CC3)[nH]c21	90.2
O=C1c2c(O)ccc(O)c2C(=O)c2c(NCCNCCO)ccc(NCCNCCO)c21 [mitoxantrone, reference compound]	23.7

# viability at 72 h, 1 µM lookup, item O=C1c2ccccc2C(=O)c2c1ccc1nc(CCl)[nH]c21
82.3

# viability at 72 h, 1 µM lookup, item COc1cccc2c1C(=O)c1c(O)c3c(c(O)c1C2=O)C[C@@](O)(C(=O)CO)C[C@@H]3O[C@H]1C[C@H](N)[C@H](O)[C@H](C)O1 [doxorubicin, reference compound]
17.1

---

# System: NCI-H23
# assay.remarks: NCI 60-cell drug screen, one dose
# Type: cell-based, human
# condition.set: Non-Small Cell Lung Cancer NCI-H23, 1.00E−5 Molar
Listed here: items and their measured Growth Percent.
Could you give the number and then its unit, please?

Known Growth Percent results, listed for orientation:
In [3]: df
Out[3]:
                                        smi  data_value
0  O=C1c2ccccc2C(=O)c2c1ccc1nc(CN3CCCCC3)[nH]c21      81.32%
1  O=C1c2ccccc2C(=O)c2c1ccc1nc(CN3CCN(c4ccccn4)CC3)[nH]c21      81.65%
2  CCN(CC)Cc1nc2ccc3c(c2[nH]1)C(=O)c1ccccc1C3=O      75.96%
3  CN1CCN(Cc2nc3ccc4c(c3[nH]2)C(=O)c2ccccc2C4=O)CC1      72.97%
4  CN(CCc1ccccn1)Cc1nc2ccc3c(c2[nH]1)C(=O)c1ccccc1C3=O      90.81%

# Growth Percent lookup, item O=C1c2ccccc2C(=O)c2c1ccc1nc(CN3CCN(c4ccccc4)CC3)[nH]c21
92.11%

---

# Tested on: LOX IMVI
# assay.remarks: NCI 60-cell drug screen, one dose
# Assay type: cell-based, human
# condition.set: Melanoma LOX IMVI, 1.00E−5 Molar
Listed here: items and their measured Growth Percent.
Answer in %, number only, no unit symbol.

                                        smi  measurement_unit  data_value
0  O=C1c2ccccc2C(=O)c2c1ccc1nc(CN3CCCCC3)[nH]c21                 %       62.99
1  O=C1c2ccccc2C(=O)c2c1ccc1nc(CN3CCN(c4ccccc4)CC3)[nH]c21                 %       95.76
2  CN(CCc1ccccn1)Cc1nc2ccc3c(c2[nH]1)C(=O)c1ccccc1C3=O                 %       89.67
3  CN1CCN(Cc2nc3ccc4c(c3[nH]2)C(=O)c2ccccc2C4=O)CC1                 %       43.47
4  O=C1c2ccccc2C(=O)c2c1ccc1nc(CN3CCN(c4ccccn4)CC3)[nH]c21                 %       82.25

Below: the item to evaluate.
# Growth Percent lookup, item CCN(CC)Cc1nc2ccc3c(c2[nH]1)C(=O)c1ccccc1C3=O
61.98

---

# System: TK-10
# assay.remarks: NCI 60-cell drug screen, one dose
# Format: cell-based, human
# condition.set: Renal Cancer TK-10, 1.00E−5 Molar
reported.metric: Growth Percent

Known Growth Percent results, listed for orientation:
In [3]: df
Out[3]:
                                        smi  data_value
0  O=C1c2ccccc2C(=O)c2c1ccc1nc(CN3CCCCC3)[nH]c21     115.68%
1  CCN(CC)Cc1nc2ccc3c(c2[nH]1)C(=O)c1ccccc1C3=O      98.12%
2  O=C1c2ccccc2C(=O)c2c1ccc1nc(CN3CCN(c4ccccn4)CC3)[nH]c21     120.65%

# Growth Percent lookup, item O=C1c2ccccc2C(=O)c2c1ccc1nc(CN3CCN(c4ccccc4)CC3)[nH]c21
118.37%

# Growth Percent lookup, item CN1CCN(Cc2nc3ccc4c(c3[nH]2)C(=O)c2ccccc2C4=O)CC1
73.05%

# Growth Percent lookup, item CN(CCc1ccccn1)Cc1nc2ccc3c(c2[nH]1)C(=O)c1ccccc1C3=O
130.74%
